Source listed as patent US20130116251A1.

Target: rHSP90
Assay: HSP90 binding assay (BIACORE SPR; inhibition of binding between rHSP90 and fixed herbimycin A)
Conditions: concentration inhibiting binding between rHSP90 (50 μg/mL) and fixed herbimycin A by 50%, BIACORE-X SPR; read-out: HSP90 inhibitory activity IC50
Where a name gives a salt, the structure may show the parent alone.
Values of IC50 strictly less than 200 nM map to TRUE, and values of at least 200 nM map to FALSE.

compound: CC(C)c1cc(-c2nnc(S(C)(=O)=O)n2-c2ccc(CN3CCOCC3)cc2)c(O)cc1O
group: TRUE
--
compound: COCCOCCS(=O)(=O)c1nnc(-c2cc(C(C)C)c(O)cc2O)n1-c1ccc(OC)cc1
group: FALSE
--
compound: COc1ccc(-n2c(SCCN(C)C)nnc2-c2cc(C(C)C)c(O)cc2O)cc1
group: FALSE
--
compound: CC(C)c1cc(-c2nnc(S(=O)(=O)CCCN(C)C)n2-c2ccc(O)cc2)c(O)cc1O [SFN2-a11•TFA]
group: FALSE
--
compound: COc1ccc(-n2c(-c3cc(C(C)C)c(O)cc3O)n[nH]c2=O)cc1
group: TRUE
--
compound: CC(C)c1cc(-c2n[nH]c(=S)n2C2CCCCC2)c(O)cc1O
group: FALSE
--
compound: CC(C)c1cc(-c2n[nH]c(=S)n2C(C)C)c(O)cc1O
group: FALSE
--
compound: COCCn1c(-c2cc(C(C)C)c(O)cc2O)n[nH]c1=O
group: FALSE
--
compound: CSc1nnc(-c2cc(C(C)C)c(O)cc2O)n1-c1ccc(CN2CCOCC2)cc1 [SMe-a02-TF, trifluoroacetate]
group: FALSE
--
compound: CC#CCc1cc(-c2n[nH]c(=O)n2-c2ccc(CN3CCOCC3)cc2)c(O)cc1O
group: FALSE
--
compound: CC(C)c1cc(-c2nnc(S(C)(=O)=O)n2C(C)C)c(O)cc1O
group: FALSE
--
compound: COc1ccc(-n2c(-c3cc(C(C)C)c(O)cc3O)nnc2[S+](C)[O-])cc1 (stereo not shown)
group: TRUE
--
compound: CC(C)c1cc(-c2nnc(S(=O)(=O)CCCN3CCCCC3)n2C(C)C)c(O)cc1O [SFN3-a21•TFA]
group: FALSE
--
compound: COc1ccc(-n2c(NS(C)(=O)=O)nnc2-c2cc(C(C)C)c(O)cc2O)cc1
group: FALSE
--
compound: CC(C)c1cc(-c2n[nH]c(=O)n2CCCN2CCOCC2)c(O)cc1O
group: FALSE
--
compound: CC(C)c1cc(-c2nnc([S+](C)[O-])n2-c2ccc(C[N+]3([O-])CCOCC3)cc2)c(O)cc1O (stereo not shown)
group: TRUE
--
compound: CC(C)c1cc(-c2n[nH]c(=S)n2-c2cccnc2)c(O)cc1O
group: TRUE
--
compound: CC(C)c1cc(-c2nnc(S(C)(=O)=O)n2CCCN2CCOCC2)c(O)cc1O
group: FALSE
--
compound: C#CCc1cc(-c2n[nH]c(=O)n2-c2ccc(CN3CCOCC3)cc2)c(O)cc1O
group: TRUE
--
compound: COc1ccc(-n2c(-c3cc(C(C)C)c(O)cc3O)nnc2S(=O)(=O)Cc2ccc[n+]([O-])c2)cc1
group: FALSE
--
compound: CC(C)c1cc(-c2n[nH]c(=O)n2-c2ccc(CN3CCN(C)CC3)cc2)c(O)cc1O
group: FALSE
--
compound: CC(C)c1cc(-c2n[nH]c(=S)n2-c2ccc(N3CCOCC3)cc2)c(O)cc1O [SH-a01-TF]
group: TRUE
--
compound: CC(C)c1cc(-c2n[nH]c(=S)n2CC2CCCO2)c(O)cc1O (stereo not shown)
group: FALSE
--
compound: COc1ccc(-n2c(-c3cc(C(C)C)c(O)cc3O)nnc2S(=O)(=O)CC(=O)N(C)C)cc1
group: FALSE
--
compound: CC(C)c1cc(-c2n[nH]c(=O)n2-c2ccc(N3CCOCC3)cc2)c(O)cc1O
group: TRUE
--
compound: CC(C)c1cc(-c2n[nH]c(=O)n2CCN2CCOCC2)c(O)cc1O [OH-a26•HCl]
group: TRUE
--
compound: COc1cccc(-n2c(-c3cc(C(C)C)c(O)cc3O)n[nH]c2=O)c1
group: TRUE
--
compound: COc1ccc(-n2c(-c3cc(C(C)C)c(O)cc3O)nnc2S(=O)(=O)CCCN2CCCCC2)cc1
group: FALSE
--
compound: CC(C)c1cc(-c2n[nH]c(=O)n2C(C)C)c(O)cc1O
group: TRUE
--
compound: COc1ccc(-n2c(-c3cc(C(C)C)c(O)cc3O)nnc2S(=O)(=O)Cc2cccnc2)cc1
group: FALSE
--
compound: CC(C)c1cc(-c2n[nH]c(=S)n2-c2ccccc2)c(O)cc1O
group: FALSE
--
compound: CC#CCc1cc(-c2n[nH]c(=S)n2-c2ccc(CN3CCOCC3)cc2)c(O)cc1O
group: FALSE
--
compound: CC(C)c1cc(-c2nnc(S(C)(=O)=O)n2CCCN2CCCC2=O)c(O)cc1O
group: FALSE
--
compound: CC(C)c1cc(-c2n[nH]c(=S)n2-c2ccc(Br)cc2)c(O)cc1O
group: TRUE
--
compound: CC(C)c1cc(-c2n[nH]c(=O)n2N2CCCCC2)c(O)cc1O [OH-a24•TFA]
group: FALSE
--
compound: COc1ccc(-n2c(-c3cc(C(C)C)c(O)cc3O)nnc2S(=O)(=O)CCCN(C)C)cc1
group: FALSE
